Values compiled from the supplement of paper PMC8728848.

biological target: GlcNAc(b1-2)Man(a1-3)[GlcNAc(b1-4)][GlcNAc(b1-2)Man(a1-6)]Man(b1-4)GlcNAc(b1-4)[Fuc(a1-6)]GlcNAc; test: glycan array binding signal (z-score within array); higher = stronger binding; settings: glycan notation: IUPAC condensed, linker removed
The sample as a whole holds a higher share of the strongest signals than the screen did.
Could you please report measured glycan array binding signal (z-score) for the items listed next?
Numbers only.

Recorded glycan array binding signal (z-score), per entry:
binder="SP15308A-bot-339-19-339 (Bacteroides ovatus) (protein) ACNNEWEDEQYEQYISFKSPIPAGGEGVTDIYVRYKEDGKVTYRLPIVVSGSTTNTLDREVHIAVDKDTLETLNIERFSIHRPGLWYTALEEDKYDFPKTVHISAGSSVEQLNIDFNLQGIDMLEKWVLPLTIVDDPSYNYKSHPRKNYAKALLRVIPFNNYSGSYTSSAMKVYTYINGKPDTNARTANKRTGYVINDNTVFFYAGLISEDLDKEVREKYKINVHFNEDGTLHMEQGDPTNKMKFELIGTPTYSKTSVMDATRPYLERRYVQIMFEYDFEDFSYGGNGVDVIPIKYKVEGSMTLQRNINTQIPDEDQQIEW" reported_result=-0.474
binder="Thrombomodulin (Mus musculus) (protein) ALAKLQPTGSQCVEHECFALFQGPATFLDASQACQRLQGHLMTVRSSVAADVISLLLSQSSMDLGPWIGLQLPQGCDDPVHLGPLRGFQWVTGDNHTSYSRWARPNDQTAPLCGPLCVTVSTATEAAPGEPAWEEKPCETETQGFLCEFYFTASC" reported_result=-0.052
binder="MGL1 (Mus musculus), P49300 (protein) MIYENLQNSRIEEKTQEPGKAPSQSFLWRILSWTHLLLFSLGLSLLLLVVVSVIGSQNSQLRRDLGTLRATLDNTTSKIKAEFQSLDSRADSFEKGISSLKVDVEDHRQELQAGRDLSQKVTSLESTVEKREQALKTDLSDLTDHVQQLRKDLKALTCQLANLKNNGSEVACCPLHWTEHEGSCYWFSESEKSWPEADKYCRLENSHLVVVNSLEEQNFLQNRLANVVSWIGLTDQNGPWRWVDGTDFEKGFKNWAPLQPDNWFGHGLGGGEDCAHITTGGPWNDDVCQRTFRWICEMKLAKES" reported_result=0.417

Batch of 2 binders: report glycan array binding signal (z-score) for each.
1. Langerin K313I (Homo sapiens), Q9UJ71 (protein) STLNAQIPELKSDLEKASALNTKIRALQGSLENMSKLLKRQNDILQVVSQGWKYFKGNFYYFSLIPKTWYSAEQFCVSRNSHLTSVTSESEQEFLYKTAGGLIYWIGLTKAGMEGDWSWVDDTPFNKVQSARFWIPGEPNNAGNNEHCGNIKAPSLQAWNDAPCDITFLFICKRPYVPSEP
2. LSECtin (Homo sapiens), Q6UXB4 (protein) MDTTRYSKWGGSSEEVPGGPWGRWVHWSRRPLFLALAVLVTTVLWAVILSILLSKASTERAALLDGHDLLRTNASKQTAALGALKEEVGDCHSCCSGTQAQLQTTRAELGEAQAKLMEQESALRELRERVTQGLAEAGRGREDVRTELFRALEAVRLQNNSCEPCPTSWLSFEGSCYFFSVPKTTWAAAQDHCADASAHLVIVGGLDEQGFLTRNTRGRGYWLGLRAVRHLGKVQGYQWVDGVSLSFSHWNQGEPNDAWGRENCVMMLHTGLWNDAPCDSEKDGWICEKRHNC

Response given:
1. 4.2
2. 6.3
